biological target: chemokine receptor CXCR7 (UniProt P25106 1-362, limits assumed); experiment: cell-based or functional assay
Sequence (P25106 whole entry): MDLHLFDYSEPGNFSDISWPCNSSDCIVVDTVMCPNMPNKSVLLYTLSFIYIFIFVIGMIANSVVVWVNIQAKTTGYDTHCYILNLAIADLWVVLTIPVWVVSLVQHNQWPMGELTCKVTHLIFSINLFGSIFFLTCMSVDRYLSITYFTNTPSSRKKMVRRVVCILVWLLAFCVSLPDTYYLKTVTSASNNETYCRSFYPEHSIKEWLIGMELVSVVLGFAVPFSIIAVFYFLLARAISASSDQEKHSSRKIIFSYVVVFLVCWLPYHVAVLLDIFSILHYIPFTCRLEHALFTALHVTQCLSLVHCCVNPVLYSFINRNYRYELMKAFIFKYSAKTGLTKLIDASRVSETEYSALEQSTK
Numbered stars: 1 amine (or outer) side, 2 acyl side, 3 side chain; on linkers, the order of the positions; unused ones are H or OH. Square brackets hold non-standard residues; d marks the D form. Pro((4S)NHBz) = proline with (4S)-NHBz, O=C(N[C@H]1C[C@@H](C(=O)[*:2])N([*:1])C1)c1ccccc1; dPro(cis-4-NH2) = N[C@H]1CN[C@@H](C(=O)O)C1; Tic = O=C(O)[C@@H]1Cc2ccccc2CN1; Orn = NCCC[C@H](N)C(=O)O; A56 = not defined here
The following binders are listed with their measured β-Arrestin EC50 values.
Express the result in nM but write the number alone.

# count of solved cases: 2
>>> measured_number("cyclo(W[dF]W[Orn](A56)[dPro(cis-4-NH2)][Tic]) (reading uncertain; also: printed as cyclo(-Trp-^DPhe-Trp-Orn(A56)-^DPro((4R)NH2)-Tic-)) [cyclo(-Trp-^DPhe-Trp-Orn(A56)-^DPro((4R)NH2)-Tic-)]")
33.4
>>> measured_number("cyclo(I[dR]RW[dPro(cis-4-NH2)]T) (SMILES CC[C@H](C)[C@@H]1NC(=O)[C@H]([C@@H](C)O)NC(=O)[C@H]2C[C@@H](N)CN2C(=O)[C@H](Cc2c[nH]c3ccccc23)NC(=O)[C@H](CCCNC(=N)N)NC(=O)[C@@H](CCCNC(=N)N)NC1=O) [cyclo(-Ile-^DArg-Arg-Trp-^DPro((4R)NH2)-Thr-)]")
948

Proceed to the following item.
Consider the binder cyclo(H[dW]HW[dP][Pro((4S)NHBz)]) (SMILES O=C(N[C@H]1C[C@H]2C(=O)N[C@@H](Cc3c[nH]cn3)C(=O)N[C@H](Cc3c[nH]c4ccccc34)C(=O)N[C@@H](Cc3c[nH]cn3)C(=O)N[C@@H](Cc3c[nH]c4ccccc34)C(=O)N3CCC[C@@H]3C(=O)N2C1)c1ccccc1) [cyclo(-His-^DTrp-His-Trp-^DPro-Pro((4S)NHBz)-)] and give its measured β-Arrestin EC50. 414
